Tested on: HeLa cells
Assay Summary: [3H] Adenosine uptake assay
Format: cell-based
Test Settings: Homo sapiens, HeLa, accumulation of tritiated adenosine into HeLa cells; compound concentration range 10 μM to 0.032 nM; read-out: ADU inhibition IC50 (adenosine uptake inhibition potency)
Reported Endpoint: IC50 (µM)
Respond with the bare value in µM.

HeLa cells / IC50 / CCOc1cc(C(=O)Nc2cc(C(F)(F)F)ccn2)ccc1-c1nc([C@@H]2CC[C@](C)(C(=O)O)C2(C)C)n2ccnc(N)c12 : value?
7.35

HeLa cells / IC50 / CCOc1cc(C(=O)Nc2cc(C(F)(F)F)ccn2)ccc1-c1nc([C@H]2CC[C@@](C)(C(=O)O)C2(C)C)n2ccnc(N)c12 : value?
3.2

HeLa cells / IC50 / C[C@H]1CO[C@@H](c2nc(-c3ccc(C(=O)Nc4cc(C(F)(F)F)ccn4)cc3)c3c(N)nccn23)CN1[C@H]1CC[C@@](C)(C(=O)O)CC1 : value?
3.08

HeLa cells / IC50 / CC1(C)[C@H](C(=O)O)CC[C@]1(C)c1nc(-c2ccc(C(=O)Nc3cc(C(F)(F)F)ccn3)cc2)c2c(N)nccn12 : value?
2.98

HeLa cells / IC50 / Nc1nccn2c([C@@H]3CC[C@H](CC(=O)O)C3)nc(-c3ccc(C(=O)Nc4cc(C(F)(F)F)ccn4)cc3)c12 : value?
10

HeLa cells / IC50 / C[C@H]1CO[C@@H](c2nc(-c3ccc(C(=O)Nc4cc(C(F)(F)F)ccn4)cc3F)c3c(N)ncc(Cl)n23)CN1[C@H]1CC[C@@](C)(C(=O)O)CC1 : value?
4.06

HeLa cells / IC50 / C[C@]1(C(=O)O)CCN(c2nc(-c3ccc(C(=O)Nc4cc(C(F)(F)F)ccn4)cc3)c3c(N)nccn23)C1 : value?
10

HeLa cells / IC50 / C[C@H]1CO[C@@H](c2nc(-c3ccc(C(=O)Nc4cc(C5CC5)ccn4)cc3F)c3c(N)nccn23)CN1[C@H]1CC[C@](C)(C(=O)O)CC1 : value?
6.27

HeLa cells / IC50 / CCOc1cc(C(=O)Nc2cc(C(F)(F)F)ccn2)ccc1-c1nc([C@H]2CC[C@@](C(=O)O)(C(C)C)C2)n2ccnc(N)c12 : value?
8.55

HeLa cells / IC50 / Nc1nccn2c(-c3ccc(C(=O)O)nc3)nc(-c3ccc(C(=O)Nc4cc(C(F)(F)F)ccn4)cc3)c12 : value?
7.5

HeLa cells / IC50 / COc1cc(C(=O)Nc2cc(C(F)(F)F)ccn2)cc(F)c1-c1nc([C@@H]2CC[C@](C)(C(=O)O)C2(C)C)n2ccnc(N)c12 : value?
8.84

HeLa cells / IC50 / C[C@H]1CO[C@@H](c2nc(-c3ccc(C(=O)Nc4cc(C(F)F)ccn4)cc3)c3c(N)ncc(Cl)n23)CN1[C@H]1CC[C@](C)(C(=O)O)CC1 : value?
10

HeLa cells / IC50 / CCOc1cc(C(=O)Nc2cc(C(F)(F)F)ccn2)ccc1-c1nc([C@H]2CN(C3CCC(C)(C(=O)O)CC3)[C@@H](C)CO2)n2c(Cl)cnc(N)c12 (stereo partly drawn) : value?
4.84

HeLa cells / IC50 / CC1(C(=O)O)CCC(C)(c2nc(-c3ccc(C(=O)Nc4cc(C(F)(F)F)ccn4)cc3F)c3c(N)nccn23)CC1 (stereo not drawn) : value?
2.77

HeLa cells / IC50 / CCOc1cc(C(=O)Nc2cc(C(F)(F)F)ccn2)ccc1-c1nc([C@H]2CC[C@](C(=O)O)(C(C)C)C2)n2ccnc(N)c12 : value?
10

HeLa cells / IC50 / C[C@H]1CO[C@@H](c2nc(-c3ccc(C(=O)Nc4cc(C(F)(F)F)ccn4)cc3F)c3c(N)nccn23)CN1[C@H]1CC[C@](C)(C(=O)O)CC1 : value?
2.84

HeLa cells / IC50 / CCOc1cc(C(=O)Nc2cc(C(F)(F)F)ccn2)ccc1-c1nc(C23CCC(C(=O)O)(CC2(F)F)C(F)(F)C3)n2ccnc(N)c12 (stereo not drawn) : value?
10

HeLa cells / IC50 / C[C@H]1CO[C@@H](c2nc(-c3ccc(C(=O)Nc4cc(C(F)F)ccn4)cc3F)c3c(N)nccn23)CN1[C@H]1CC[C@](C)(C(=O)O)CC1 : value?
10

HeLa cells / IC50 / C[C@]1(C(=O)O)CC[C@H](N2CCO[C@@H](c3nc(-c4ccc(C(=O)Nc5ccccn5)cc4)c4c(N)ncc(Cl)n34)C2)CC1 : value?
3.87

HeLa cells / IC50 / CCOc1cc(C(=O)Nc2cc(C(F)(F)F)ccn2)ccc1-c1nc([C@H]2CC[C@@](C(=O)O)(C(C)C)C2)n2c(Cl)cnc(N)c12 : value?
10

HeLa cells / IC50 / Nc1nccn2c(C34CC(C(=O)O)(C3)C4)nc(-c3ccc(C(=O)Nc4cc(C(F)(F)F)ccn4)cc3)c12 : value?
6.48

HeLa cells / IC50 / CCOc1cc(C(=O)Nc2cc(C(F)(F)F)ccn2)c(F)cc1-c1nc(C2(C)CCC(C)(C(=O)O)CC2)n2ccnc(N)c12 (stereo not drawn) : value?
10

HeLa cells / IC50 / C[C@@]1(C(=O)O)CC[C@](C)(c2nc(-c3ccc(C(=O)Nc4cc(C(F)(F)F)ccn4)cc3)c3c(N)nccn23)C1 : value?
10

HeLa cells / IC50 / Nc1nccn2c([C@@H]3CC[C@@H](CC(=O)O)C3)nc(-c3ccc(C(=O)Nc4cc(C(F)(F)F)ccn4)cc3)c12 : value?
7.98
